These entries and their values trace back to PubChem BioAssay AID1963978.

Test system: 616215-338-R-J1-PDC spheroids with HUVEC/MSC, viability
test_name: Anticancer human tumor 616215-338-R-J1-PDC patient-derived colon adenocarcinoma cell line growth inhibition [PI3K]
experimental_setup: second compound 1 µM; first compound 0.1 µM; hits give low values
Please note: viability, T/C exactly at 80% is 0. Only values below 80% get 1.

# example entries with known answers
molecule	cat
CCCS(=O)(=O)Nc1ccc(F)c(C(=O)c2c[nH]c3ncc(-c4ccc(Cl)cc4)cc23)c1F + CC(Nc1ccc2c(c1)OCCn1cc(N3C(=O)OCC3C(F)F)nc1-2)C(N)=O	0
CC(C)n1nc(-c2ccc3oc(N)nc3c2)c2c(N)ncnc21 + COc1c(OCCCN2CCOCC2)ccc2c3n(c(=NC(=O)c4cnc(N)nc4)nc12)CCN3	1
Cn1ncnc1[C@H]1c2n[nH]c(=O)c3cc(F)cc(c23)N[C@@H]1c1ccc(F)cc1 + Cc1nc(NC(=O)N2CCCC2C(N)=O)sc1-c1ccnc(C(C)(C)C(F)(F)F)c1	0

Confirm or reject: viability, T/C of C=CC(=O)N1CCN(c2nc(=O)n(-c3c(C)ccnc3C(C)C)c3nc(-c4c(O)cccc4F)c(F)cc23)C(C)C1 (stereo unspecified) + COc1c(OCCCN2CCOCC2)ccc2c3n(c(=NC(=O)c4cnc(N)nc4)nc12)CCN3 lies strictly below 80% 1

Confirm or reject: viability, T/C of CNC(=O)c1ccc(N2C(=S)N(c3ccc(C#N)c(C(F)(F)F)c3)C(=O)C2(C)C)cc1F + CC(Nc1ncnc2nc[nH]c12)c1cc2cccc(Cl)c2c(=O)n1-c1ccccc1 lies strictly below 80% 0

---

Test system: 616215-338-R-J1-PDC spheroids with HUVEC/MSC, viability
test_name: Anticancer human tumor 616215-338-R-J1-PDC cell line growth inhibition [PI3K];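 further: spheroids exposed to agents for seven days before the viability read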
experimental_setup: second compound 0.01 µM; first compound 0.1 µM; hits give low values
Measured viability, T/C of individual entries
Please give a number only; it is taken to be in %.

// worked examples, viability, T/C included
molecule	units_of_measure	viability, T/C
C=CC(=O)N1CCN(c2nc(=O)n(-c3c(C)ccnc3C(C)C)c3nc(-c4c(O)cccc4F)c(F)cc23)C(C)C1 (stereo not given) + CC(Nc1ccc2c(c1)OCCn1cc(N3C(=O)OCC3C(F)F)nc1-2)C(N)=O	%	100
CNC(=O)c1ccc(N2C(=S)N(c3ccc(C#N)c(C(F)(F)F)c3)C(=O)C2(C)C)cc1F + COc1c(OCCCN2CCOCC2)ccc2c3n(c(=NC(=O)c4cnc(N)nc4)nc12)CCN3	%	108
CC(C)NCC(C(=O)N1CCN(c2ncnc3c2C(C)CC3O)CC1)c1ccc(Cl)cc1 (stereo not given) + COc1c(OCCCN2CCOCC2)ccc2c3n(c(=NC(=O)c4cnc(N)nc4)nc12)CCN3	%	99.6
Cn1nccc1Nc1nccc(-c2ccn(C(CO)c3ccc(Cl)c(F)c3)c(=O)c2)n1 (stereo not given) + COc1c(OCCCN2CCOCC2)ccc2c3n(c(=NC(=O)c4cnc(N)nc4)nc12)CCN3	%	102

Could you now consider this next molecule?
API: value(readout= viability, T/C, system= 616215-338-R-J1-PDC spheroids with HUVEC/MSC, viability, query= CC(Cn1ccc(-c2ccc(C#N)c(Cl)c2)n1)NC(=O)c1cc(C(C)O)[nH]n1 (stereo not given) + CC(Nc1ccc2c(c1)OCCn1cc(N3C(=O)OCC3C(F)F)nc1-2)C(N)=O ) 105
